experiment: Area under the curve determinations of plasma levels in rats (rrAUC), oral 10 mg/kg; type: in vivo; settings: rat, plasma 0.5-6 h post-dosing, read-out: RR AUC (rapid rat AUC, rrAUC)
Reported AUC values follow for various compounds
measure: AUC (nM·h)

> print(dat)
                              sample.smiles   uom   val
1  COc1ccc2c(c1)C(=O)N(C[C@@]1(c3cc4nc(-n5ccnc5)ccc4o3)NC(=O)NC1=O)C2  nM·h   534
2  COc1ccc2c(c1)C(=O)N(C[C@@]1(c3cc4cc(-c5csc(N)n5)ccc4o3)NC(=O)NC1=O)C2  nM·h   165
3  COc1ccc2c(c1)C(=O)N(C[C@@]1(c3cc4ccc(NC(C)=O)nc4o3)NC(=O)NC1=O)C2  nM·h   974
4  COc1ccc2c(c1F)C(=O)N(C[C@@]1(c3cc4nc(-c5c(C)nn(C)c5C)ccc4o3)NC(=O)NC1=O)C2  nM·h  7000

###

biological target: purified catalytic domain of recombinant human TACE (rhTACEc) (Homo sapiens, UniProt P78536, N452Q/S266A); construct: 6xHis (C); made in house; host or cells: baculovirus/Hi5 insect cells; test: TACE kinetic assay: cleavage of internally quenched peptide substrate TNF-FRET 2 (Ki); assay type: biochemical; details: TNF-FRET 2 substrate, read-out: Ki
Sequence (P78536 215-477 S266A/N452Q): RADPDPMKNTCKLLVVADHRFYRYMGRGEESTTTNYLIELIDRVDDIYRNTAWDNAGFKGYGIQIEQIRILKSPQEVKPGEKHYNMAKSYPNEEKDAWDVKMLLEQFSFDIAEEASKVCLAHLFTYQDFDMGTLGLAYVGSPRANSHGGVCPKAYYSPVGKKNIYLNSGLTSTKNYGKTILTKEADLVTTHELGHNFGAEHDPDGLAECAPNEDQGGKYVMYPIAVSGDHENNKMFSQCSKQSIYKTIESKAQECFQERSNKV
pKi: −log10 of the molar value.
Reported values of pKi for individual entries
measure: pKi

> print(dat)
                                   compound   val
1  COc1ccc2c(c1)C(=O)N(C[C@@]1(c3cc4ncc(CO)cc4o3)NC(=O)NC1=O)C2 [Compound 1941]  9.23
2  COc1ccc2c(c1F)C(=O)N(C[C@@]1(c3cc4c5c(ccc4o3)CNC5=O)NC(=O)NC1=O)C2  9.22
3  COc1ccc2c(c1)C(=O)N(C[C@@]1(c3cc4c(-c5cccc(C#N)c5)nccc4o3)NC(=O)NC1=O)C2  9.14
4  COc1ccc2c(c1)C(=O)N(C[C@@]1(c3cc4cc(-c5cc[nH]n5)ccc4o3)NC(=O)NC1=O)C2  9.17
5  COc1ccc2c(c1)C(=O)N(C[C@@]1(c3cc4cc(-c5cn[nH]c5)ccc4o3)NC(=O)NC1=O)C2  9.46
6  COc1ccc2c(c1)C(=O)N(C[C@@]1(c3cc4cnc(O)cc4o3)NC(=O)NC1=O)C2  8.97
7  COc1ccc2c(c1F)C(=O)N(C[C@@]1(c3cc4cc(C5(C)NC(=O)NC5=O)c(C)cc4o3)NC(=O)NC1=O)C2 (stereo partly shown)  8.85

###

target: purified catalytic domain of recombinant human TACE (rhTACEc) (Homo sapiens, UniProt P78536, N452Q/S266A); construct: 6xHis (C); made in house; host or cells: baculovirus/Hi5 insect cells; assay: TACE kinetic assay: cleavage of internally quenched peptide substrate TNF-FRET 2 (Ki); assay type: biochemical; conditions: TNF-FRET 2 substrate, read-out: Ki
Threshold 0.5 nM: Ki strictly smaller gives T, otherwise F.

molecule	category label
COc1ccc2c(c1)C(=O)N(C[C@@]1(c3cc4nc(NC5CCNCC5)ccc4o3)NC(=O)NC1=O)C2 [Compound 1723]	F
COc1ccc2c(c1)C(=O)N(C[C@@]1(c3cc4nc(N5CCNC(=O)C5)ccc4o3)NC(=O)NC1=O)C2 [Compound 2114]	T
COc1ccc2c(c1)C(=O)N(C[C@@]1(c3cc4cc(N5C(=O)CNC5=O)ccc4o3)NC(=O)NC1=O)C2 [Compound 2225]	F
COc1ccc2c(c1)C(=O)N(C[C@@]1(c3cc4[nH]c(=O)ccc4o3)NC(=O)NC1=O)C2 [Compound 2317]	T
COc1ccc2c(c1F)C(=O)N(C[C@@]1(c3cc4nc(-c5cccnc5)c(F)cc4o3)NC(=O)NC1=O)C2 [Compound 1315]	T
COC(=O)[C@H](CCCCNC(=O)c1cc2cc([C@]3(CN4Cc5ccc(OC)cc5C4=O)NC(=O)NC3=O)oc2cc1F)NC(=O)CCCC[C@@H]1SCC2NC(=O)NC21 (stereo partly drawn) [Compound 1282]	T

###

biological target: purified catalytic domain of recombinant human TACE (rhTACEc) (Homo sapiens, UniProt P78536, N452Q/S266A); construct: 6xHis (C); made in house; host or cells: baculovirus/Hi5 insect cells; test: TACE kinetic assay: cleavage of internally quenched peptide substrate TNF-FRET 2 (Ki); type: biochemical; conditions: TNF-FRET 2 substrate, read-out: Ki
Threshold 800 pM. Ki below it: condition met. Ki at it or above: condition not met.

> print(dat)
                                   compound     category.label
1  COc1ccc2c(c1)C(=O)N(C[C@@]1(c3cc4cc(C(=O)NCCN(C)C)c(F)cc4o3)NC(=O)NC1=O)C2      condition met
2  COc1ccc2c(c1)C(=O)N(C[C@@]1(c3cc4cc(-c5cccnc5)ncc4o3)NC(=O)NC1=O)C2      condition met
3  COc1ccc2c(c1)C(=O)N(C[C@@]1(c3cc4nc(N5C(=O)CCC5C)ccc4o3)NC(=O)NC1=O)C2 (stereo partly shown)      condition met
4  COc1ccc2c(c1)C(=O)N(C[C@@]1(c3cc4cc(C5CCNCC5)ncc4o3)NC(=O)NC1=O)C2  condition not met
5  COc1ccc2c(c1)C(=O)N(C[C@@]1(c3cc4cc(CN5CCNCC5)ccc4o3)NC(=O)NC1=O)C2      condition met

###

target: purified catalytic domain of recombinant human TACE (rhTACEc) (Homo sapiens, UniProt P78536, N452Q/S266A); construct: 6xHis (C); made in house; host or cells: baculovirus/Hi5 insect cells; assay: TACE kinetic assay: cleavage of internally quenched peptide substrate TNF-FRET 2 (Ki); assay type: biochemical; details: TNF-FRET 2 substrate, read-out: Ki
Reported values of Ki for individual entries

compound	Ki
COc1ccc2c(c1)C(=O)N(C[C@@]1(c3cc4nc(-c5cc6ccccc6[nH]5)ccc4o3)NC(=O)NC1=O)C2	0.286 nM
COc1ccc2c(c1)C(=O)N(C[C@@]1(c3cc4nc(-c5cncc(C#N)c5)ccc4o3)NC(=O)NC1=O)C2 [Compound 2471]	0.779 nM
COc1ccc2c(c1)C(=O)N(C[C@@]1(c3cc4cc(C(=O)NCCCC[C@H](NC(=O)CCCC[C@@H]5SCC6NC(=O)NC65)C(=O)O)c(F)cc4o3)NC(=O)NC1=O)C2 (stereo partly drawn)	0.39 nM
CCN1CC=C(c2nc3cc([C@]4(CN5Cc6ccc(OC)c(F)c6C5=O)NC(=O)NC4=O)oc3cc2F)CC1	0.64 nM
CCC1(c2ccc3oc([C@]4(CN5Cc6ccc(OC)cc6C5=O)NC(=O)NC4=O)cc3c2)NC(=O)NC1=O (stereo partly drawn)	0.249 nM
COc1ccc2c(c1)C(=O)N(C[C@@]1(c3cc4nc(-c5ccc(OC)nc5)ccc4o3)NC(=O)NC1=O)C2	0.9 nM

###

biological target: purified catalytic domain of recombinant human TACE (rhTACEc) (Homo sapiens, UniProt P78536, N452Q/S266A); construct: 6xHis (C); made in house; host or cells: baculovirus/Hi5 insect cells; assay: TACE kinetic assay: cleavage of internally quenched peptide substrate TNF-FRET 2 (Ki); assay type: biochemical; conditions: TNF-FRET 2 substrate, read-out: Ki
# Ki listing for each entry below
measure: Ki (nM)

> print(dat)
                              sample.smiles    val
1  COc1ccc2c(c1)C(=O)N(C[C@@]1(c3cc4nc(Nc5c(C)noc5C)ccc4o3)NC(=O)NC1=O)C2  0.635
2  CCN1CCC(c2nc3cc([C@]4(CN5Cc6ccc(OC)c(F)c6C5=O)NC(=O)NC4=O)oc3cc2F)CC1      1
3  COc1ccc2c(c1)C(=O)N(C[C@@]1(c3cc4c(N5CCCC5=O)nccc4o3)NC(=O)NC1=O)C2   1.26
4  COc1ccc2c(c1)C(=O)N(C[C@@]1(c3cc4cc(CNC(=O)N(C)C)ccc4o3)NC(=O)NC1=O)C2   0.49
5  COc1ccc2c(c1F)C(=O)N(C[C@@]1(c3cc4nc(N5CCN(C)CC5)ccc4o3)NC(=O)NC1=O)C2    0.5
6  COc1ccc2c(c1)C(=O)N(C[C@@]1(c3cc4ccc(C(=O)N(C)C)cc4o3)NC(=O)NC1=O)C2   0.41
7  COc1ccc2c(c1F)C(=O)N(C[C@@]1(c3cc4nc(N5CCCN(C)CC5)ccc4o3)NC(=O)NC1=O)C2   0.76

###

Ki by entry:
molecular target: purified catalytic domain of recombinant human TACE (rhTACEc) (Homo sapiens, UniProt P78536, N452Q/S266A); construct: 6xHis (C); made in house; host or cells: baculovirus/Hi5 insect cells; test: TACE kinetic assay: cleavage of internally quenched peptide substrate TNF-FRET 2 (Ki); format: biochemical; conditions: Ki, TNF-FRET 2 substrate
measure: Ki (nM)

> print(dat)
                                    compound  uom    val
 1  Cc1ccc2c(c1)C(=O)N(C[C@@]1(c3cc4ncccc4o3)NC(=O)NC1=O)C2   nM   2.91
 2  CNC(=O)c1cnc2cc([C@]3(CN4Cc5ccc(OC)cc5C4=O)NC(=O)NC3=O)oc2c1 [Compound 1930]   nM   0.87
 3  COc1ccc2c(c1F)C(=O)N(C[C@@]1(c3cc4nc(N5CCOCC5)c(F)cc4o3)NC(=O)NC1=O)C2   nM   0.53
 4  COc1ccc2c(c1)C(=O)N(C[C@@]1(c3cc4c(C#N)nccc4o3)NC(=O)NC1=O)C2   nM    0.7
 5  COc1ccc2c(c1F)C(=O)N(C[C@@]1(c3cc4nc(-c5ccncc5)ccc4o3)NC(=O)NC1=O)C2   nM   0.58
 6  COc1ccc2c(c1)C(=O)N(C[C@@]1(c3cc4cc(-c5cccnc5)ccc4o3)NC(=O)NC1=O)C2   nM  0.966
 7  CNS(=O)(=O)c1cc2oc([C@]3(CN4Cc5ccc(OC)cc5C4=O)NC(=O)NC3=O)cc2cc1C   nM   0.43
 8  CNC(=O)c1cnc2cc([C@]3(CN4Cc5ccc(OC)cc5C4=O)NC(=O)NC3=O)oc2c1 [Compound 2461]   nM  0.871
 9  COc1ccc2c(c1F)C(=O)N(C[C@@]1(c3cc4cc5sc(N)nc5cc4o3)NC(=O)NC1=O)C2   nM   0.14
10  COc1ccc2c(c1)C(=O)N(C[C@@]1(c3cc4cc(C5CNC(=O)C5)ccc4o3)NC(=O)NC1=O)C2 (stereo partly drawn)   nM  0.524
11  CCNC(=O)Nc1ccc2oc([C@]3(CN4Cc5ccc(OC)cc5C4=O)NC(=O)NC3=O)cc2c1   nM  0.388
12  O=C1NC(=O)[C@](CN2Cc3ccc(O)cc3C2=O)(c2cc3ncccc3o2)N1   nM   1.52
13  COc1ccc2c(c1)C(=O)N(C[C@@]1(c3cc4nc(N)ccc4o3)NC(=O)NC1=O)C2 [Compound 2314]   nM  0.511
14  CCN1CCN(C(=NO)c2cnc3cc([C@]4(CN5Cc6ccc(OC)cc6C5=O)NC(=O)NC4=O)oc3c2)CC1   nM   1.44
15  COc1ccc2c(c1)C(=O)N(C[C@@]1(c3cc4cnc(N5CCNC5=O)cc4o3)NC(=O)NC1=O)C2   nM   1.79
